target: Proteasome subunit beta (Trypanosoma cruzi) (UniProt O96673); assay: Trypanosoma cruzi proteasome chymotrypsin-like activity (TcProtChymo) assay.; format: functional; parameters: scale not given: in the data most compounds retested in dose-response had high values; conditions: 9.37 µM
Sequence (O96673 as listed by the source): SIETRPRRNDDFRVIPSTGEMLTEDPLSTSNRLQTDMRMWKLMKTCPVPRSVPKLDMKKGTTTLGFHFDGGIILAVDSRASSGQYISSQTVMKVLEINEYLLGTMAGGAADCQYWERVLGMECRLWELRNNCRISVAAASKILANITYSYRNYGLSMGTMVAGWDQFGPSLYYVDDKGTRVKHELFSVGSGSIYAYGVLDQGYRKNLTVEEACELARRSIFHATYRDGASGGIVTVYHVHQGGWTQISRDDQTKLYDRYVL
Recorded metric: Percent Effect (%)
Give the value, in units of %, as a plain number.

Compound	Percent Effect (%)
Cc1nccn1CCC1CCCCN1C(=O)c1ccc2[nH]nnc2c1 (stereo unspecified)	9.59
COc1cc(CNCCc2nc(C)cs2)cc2c1OCCO2	12.5

stdin: Request the reported Percent Effect associated with `Cn1ccnc1CN1CCN(Cc2ccccc2C#N)CC1`
stdout: 6.34

stdin: Then what about the compound CC(NC(=O)Cn1cccn1)c1cccnc1 (stereo unspecified) ?
stdout: 1.92

stdin: Then what about the compound `NC(=O)CCOc1nc(-c2ccccc2Cl)no1` ?
stdout: 8.87

stdin: Then what about the compound `CC(C)C(=O)N1CCN(C(=O)c2cc(C(C)C)on2)[C@H]2CS(=O)(=O)C[C@H]21` ?
stdout: 17.5
